The values you see were collected from paper PMC11332825.

In this section we review reported stoichiometry N values for a set of proteins.
Biological target: the molecule itself
Assay: mass photometry; 100 nM protein diluted in PBS (pH 7.4), room temperature, 60 s acquisition, TwoMP mass photometer; monomer to dimer
MEASURED_QUANTITY: stoichiometry N

1) human ketohexokinase-A N42A (enzyme, ketohexokinase, splice isozyme A (KHK-A), human, with N42A; Expressed and purified as described for WT KHK-A; PDB 2HLZ is the wild-type parent; also called KHK-A N42A; source: E. coli BL21-CodonPlus-RIL, purified (Ni-NTA, Superdex 200 gel filtration)) QILCVGLVVLDVISLVDKYPKEDSEIRCLSQRWQRGGAASNSCTVLSLLGAPCAFMGSMAPGHVADFVLDDLRRYSVDLRYTVFQTTGSVPIATVIINEASGSRTILYYDRSLPDVSATDFEKVDLTQFKWIHIEGRNASEQVKMLQRIDAHNTRQPPEQKIRVSVEVEKPREELFQLFGYGDVVFVSKDVAKHLGFQSAEEALRGLYGRVRKGAVLVCAWAEEGADALGPDGKLLHSDAFPPPRVVDTLGAGDTFNASVIFSLSQGRSVQEALRFGCQVAGKKCGLQGFDGIV :: 2
2) human ketohexokinase-A (KHK-A), wild type (enzyme, ketohexokinase, splice isozyme A (KHK-A), human; good electron density for residues 3 to 298; theoretical molecular weight of the monomer printed as 34.65 kDa; Cloned into pET-28b(+) by GenScript; also called WT KHK-A; WT; source: E. coli BL21-CodonPlus-RIL, purified (Ni-NTA, Superdex 200 gel filtration)) QILCVGLVVLDVISLVDKYPKEDSEIRCLSQRWQRGGNASNSCTVLSLLGAPCAFMGSMAPGHVADFVLDDLRRYSVDLRYTVFQTTGSVPIATVIINEASGSRTILYYDRSLPDVSATDFEKVDLTQFKWIHIEGRNASEQVKMLQRIDAHNTRQPPEQKIRVSVEVEKPREELFQLFGYGDVVFVSKDVAKHLGFQSAEEALRGLYGRVRKGAVLVCAWAEEGADALGPDGKLLHSDAFPPPRVVDTLGAGDTFNASVIFSLSQGRSVQEALRFGCQVAGKKCGLQGFDGIV :: 2
